# AC50 measurements, system: Sodium-dependent noradrenaline transporter (Homo sapiens); note: assay procedure not described here
# Sequence (P23975 whole entry): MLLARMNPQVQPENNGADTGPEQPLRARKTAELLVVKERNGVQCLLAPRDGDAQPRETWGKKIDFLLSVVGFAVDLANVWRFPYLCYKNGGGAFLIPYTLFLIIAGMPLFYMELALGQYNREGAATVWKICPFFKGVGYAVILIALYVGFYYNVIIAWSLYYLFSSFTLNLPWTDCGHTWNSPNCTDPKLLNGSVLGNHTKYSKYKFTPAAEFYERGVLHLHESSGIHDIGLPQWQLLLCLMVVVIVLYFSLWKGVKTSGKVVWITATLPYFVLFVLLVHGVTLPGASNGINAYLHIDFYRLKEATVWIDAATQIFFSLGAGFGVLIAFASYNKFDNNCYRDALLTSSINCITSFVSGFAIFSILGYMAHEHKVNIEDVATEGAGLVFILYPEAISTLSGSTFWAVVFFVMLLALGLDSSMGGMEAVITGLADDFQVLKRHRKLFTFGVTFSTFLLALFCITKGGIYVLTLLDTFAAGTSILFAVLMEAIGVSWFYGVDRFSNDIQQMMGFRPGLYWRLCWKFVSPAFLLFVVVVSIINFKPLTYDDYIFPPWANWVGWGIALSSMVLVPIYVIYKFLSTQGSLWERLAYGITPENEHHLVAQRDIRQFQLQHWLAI
test.readout: AC50

>>> val("NCC(CC(=O)O)c1ccc(Cl)cc1 (stereo not drawn)")
"> 30 µM"
>>> val("CC1(C)O[C@@H]2C[C@H]3[C@@H]4CCC5=CC(=O)C=C[C@]5(C)[C@H]4[C@@H](O)C[C@]3(C)[C@]2(C(=O)CO)O1 [DESONIDE]")
"> 10 µM"
>>> val("CC(C)C(=O)c1c(C(C)C)nn2ccccc12")
"> 30 µM"
>>> val("COc1ccc(CC(C)(C)NC[C@H](O)c2cc(O)cc3c2OCC(=O)N3)cc1")
"> 30 µM"
>>> val("O=C(O[C@H]1C[C@H]2CC[C@@H](C1)[N+]21CCCC1)C(O)(c1ccccc1)c1ccccc1")
"> 30 µM"
>>> val("CC(C)OC(=O)CCC/C=C\\C[C@@H]1[C@@H](CC[C@@H](O)CCc2ccccc2)[C@H](O)C[C@@H]1O")
"> 30 µM"
>>> val("CN1C(=O)C(O)N=C(c2ccccc2)c2cc(Cl)ccc21 (stereo not drawn)")
"> 10 µM"
>>> val("N[C@@H]1[C@H]2CN(c3nc4c(cc3F)c(=O)c(C(=O)O)cn4-c3ccc(F)cc3F)C[C@@H]12")
"> 30 µM"
